Molecular target: 5-hydroxytryptamine receptor 1D (Homo sapiens)
Experiment: Selectivity of compound to human 5-HT1D receptor to that of human 5-HT1B receptor
measured.endpoint: Selectivity
Give bare numbers.

Answered examples (6):
CN(C)CCn1ccc2ccc(C3=CCSCC3)cc21
7.4
CN(C)CCn1ccc2ccc(-c3ccc4ccccc4c3)cc21
5.5
CN(C)CCn1ccc2ccc(C3CCSCC3)cc21
48
CN(C)CCn1ccc2ccc(C3(O)CCOCC3)cc21
48
CN(C)CCn1ccc2ccc(C3=CCOCC3)cc21
28
CN(C)CCn1ccc2ccc(-c3cccnc3)cc21
17

Hey, can you go through the list below and give me Selectivity for every item?
1. CN(C)CCn1ccc2ccc(-c3ccsc3)cc21
2. CN(C)CCn1ccc2ccc(C3(O)CCSCC3)cc21

A)
22
57

---

Molecular target: 5-hydroxytryptamine receptor 1D (Homo sapiens, UniProt P28221)
Sequence (P28221 whole entry): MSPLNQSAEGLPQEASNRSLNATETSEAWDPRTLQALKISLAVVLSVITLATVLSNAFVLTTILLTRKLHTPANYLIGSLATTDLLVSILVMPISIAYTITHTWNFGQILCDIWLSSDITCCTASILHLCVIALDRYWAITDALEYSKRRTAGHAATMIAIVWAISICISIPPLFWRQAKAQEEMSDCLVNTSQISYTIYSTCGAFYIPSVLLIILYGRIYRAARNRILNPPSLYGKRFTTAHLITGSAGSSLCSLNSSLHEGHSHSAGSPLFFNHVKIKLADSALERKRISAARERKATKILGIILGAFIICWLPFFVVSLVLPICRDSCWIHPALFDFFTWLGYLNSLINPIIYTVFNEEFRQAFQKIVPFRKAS
Assay: Ability to inhibit forskolin-stimulated adenylate cyclase activity in Chinese hamster ovary (CHO) stable cell lines expressing human 5-hydroxytryptamine 1D receptor
measured.endpoint: EC50 (nM)
Answers are plain numbers, in nM.

Q) Request the reported EC50 associated with "CN(C)CCn1ccc2ccc(C3(O)CCSCC3)cc21"
A) 0.3

---

Assay: Plasma clearance was determined in rat
Assay type: ADME, organism-based
measured.endpoint: clearance (mL/min/kg)
One number for each entry, in mL/min/kg.

Q) # input compound: "CN(C)CCn1ccc2ccc(C3(O)CCSCC3)cc21" ; wanted: its clearance
A) 74

---

The reader will find Ki measurements below, all made with 5-hydroxytryptamine receptor 1D (Homo sapiens).
One number for each entry, in nM.

Recorded results for 3 compounds are shown here.
CN(C)CCn1ccc2ccc(C3=CCSCC3)cc21
22
CN(C)CCn1ccc2ccc(-c3cccnc3)cc21
1.4
CN(C)CCn1ccc2ccc(-c3ccsc3)cc21
7.3

Fill in Ki for each of the 2 compounds listed.
1. CN(C)CCn1ccc2ccc(C3(O)CCSCC3)cc21
2. CN(C)CCn1ccc2ccc(C3=CCOCC3)cc21

A)
1. 2
2. 32

Q) Which Ki reading was recorded for the compound "CN(C)CCn1ccc2ccc(-c3ccc4ccccc4c3)cc21" ?
A) 57

---

Assay: Oral bioavailability in rat
Assay type: ADME, organism-based
Conditions: in vivo
measured.endpoint: bioavailability (%)
Numbers only, in %.

Q) Which bioavailability is listed for "CN(C)CCn1ccc2ccc(C3(O)CCSCC3)cc21" ?
A) 51.1

---

Biological target: 5-hydroxytryptamine receptor 1D (Homo sapiens)
Test: Inhibition of [3H]5-HT binding to human 5-hydroxytryptamine 1D receptor expressed in CHO cells at 1 uM
Type: cell-based
Quick rule for you: inhibition at 90% or higher means yes (1), lower means no (0).

CN(C)CCn1ccc2ccc(C3CCN(C)CC3)cc21
no (0)
CN(C)CCn1ccc2ccc(C3(O)CCSCC3)cc21
yes (1)
CN(C)CCn1ccc2ccc(N3CCOCC3)cc21
no (0)
CN(C)CCn1ccc2ccc(C3=CCSCC3)cc21
yes (1)
CN(C)CCn1ccc2ccc(C3=CCN(C)CC3)cc21
no (0)
CN(C)CCn1ccc2ccc(-c3ccsc3)cc21
yes (1)

Q) # bool: inhibition of "CN(C)CCn1ccc2ccc(-c3ccc4ccccc4c3)cc21" >= 90%
A) no (0)

Q) What do we get for "CN(C)CCn1ccc2ccc(-c3ccc(C(F)(F)F)cc3)cc21" ?
A) no (0)

Q) Follow-up item: "CN(C)CCn1ccc2ccc(-c3cccnc3)cc21"
A) yes (1)

Q) Next entry: "CN(C)CCn1ccc2ccc(C3CCSCC3)cc21"
A) yes (1)

Q) Let us now turn to "CN(C)CCn1ccc2ccc(C3(O)CCN(C)CC3)cc21"
A) no (0)
